# ASSAY OVERVIEW: Cellular Toxicity (caspase-3) Jurkat (AID 655);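 note: cells exposed to compound for 16 h at 37 °C before reading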
# CONDITIONS USED: Jurkat caspase-3 activation, luminescence, DMSO = 0%, tamoxifen = 100%; at 92.2 µM (top of the series)
# Source text: NIH Chemical Genomics Center [NCGC] NIH Molecular Libraries Screening Centers Network [MLSCN] National Institutes of Environmental Health Sciences [NIEHS] National Toxicology Program [NTP] We have developed a 1536-well cell-based assay for quantitative high throughput screening (qHTS) against a number of cell lines to determine in vitro caspase 3/7 of small molecules. […] 7. Detection; Luminescence; Viewlux plate reader […]
Results filed as inconclusive are left out.
VALUE TYPE: caspase-3 activation (%)
Please state the figure in %; there is no need to write the unit.

Input line: # get_value(readout='caspase-3 activation', item= CC1(C)CC(N=C=O)CC(C)(CN=C=O)C1 (stereo not drawn) )
Output line: 0.941

Input line: # get_value(readout='caspase-3 activation', item= C/C=C\c1ccc(OC)cc1 )
Output line: -0.717

Input line: # get_value(readout='caspase-3 activation', item= Cc1ccc([N+](=O)[O-])cc1N )
Output line: -0.45

Input line: # get_value(readout='caspase-3 activation', item= C=CC(=C)CCC=C(C)C )
Output line: -0.362

Input line: # get_value(readout='caspase-3 activation', item= O=C1c2ccccc2C(=O)C1c1ccc2ccccc2n1 )
Output line: -10.4

Input line: # get_value(readout='caspase-3 activation', item= C=Cc1ccccc1Cl )
Output line: -1.24

Input line: # get_value(readout='caspase-3 activation', item= C=C(C)C1CC=C(C)C(O)C1 (stereo not drawn) )
Output line: -2.18

Input line: # get_value(readout='caspase-3 activation', item= c1ccc2c(c1)[nH]c1ccccc12 )
Output line: 0.344

Input line: # get_value(readout='caspase-3 activation', item= COc1cc(/C=C/c2ccccc2)oc(=O)c1 )
Output line: -4.56

Input line: # get_value(readout='caspase-3 activation', item= CN(C)CCCCCCN(C)C )
Output line: -2.92

Input line: # get_value(readout='caspase-3 activation', item= COC(=O)c1ccc(C)cc1 )
Output line: 0.483

Input line: # get_value(readout='caspase-3 activation', item= Nc1ccc(Cl)cc1Cl )
Output line: 0.852

Input line: # get_value(readout='caspase-3 activation', item= COCC(=O)O )
Output line: 0.941

Input line: # get_value(readout='caspase-3 activation', item= COc1ccc(/C=C/c2cc(OC)cc(=O)o2)cc1 )
Output line: -4.41

Input line: # get_value(readout='caspase-3 activation', item= CC(C)=CCCC(C)CCO (stereo not drawn) )
Output line: 2.37

Input line: # get_value(readout='caspase-3 activation', item= Nc1ccc(S(=O)(=O)O)cc1 )
Output line: 0.897

Input line: # get_value(readout='caspase-3 activation', item= Cc1c(N=C=O)cccc1N=C=O )
Output line: -0.0166

Input line: # get_value(readout='caspase-3 activation', item= CCCCCCCCO )
Output line: -0.397

Input line: # get_value(readout='caspase-3 activation', item= CC12CCC(CC1=O)C2(C)C (stereo not drawn) )
Output line: -3.1

Input line: # get_value(readout='caspase-3 activation', item= Cc1ccc(N)c([N+](=O)[O-])c1 )
Output line: -0.471

Input line: # get_value(readout='caspase-3 activation', item= O=[N+]([O-])c1cccc(Cl)c1Cl )
Output line: 1.08

Input line: # get_value(readout='caspase-3 activation', item= Clc1cc(Cl)c(Cl)cc1Cl )
Output line: 2.8

Input line: # get_value(readout='caspase-3 activation', item= Cc1ccc([N+](=O)[O-])c(C)c1 )
Output line: 0.882

Input line: # get_value(readout='caspase-3 activation', item= CCCCCCCCCCCCCCC1CO1 (stereo not drawn) )
Output line: 0.846

Input line: # get_value(readout='caspase-3 activation', item= OCCNCCO )
Output line: 2.36

Input line: # get_value(readout='caspase-3 activation', item= C1OCOCO1 )
Output line: 2.97

Input line: # get_value(readout='caspase-3 activation', item= CC1=C2[C@H](/C=C(\C)C(=O)O)CC[C@@H](C)[C@H]2CC1 )
Output line: 97.3

Input line: # get_value(readout='caspase-3 activation', item= CCCN(CCC)C(=O)SCC )
Output line: 2.52

Input line: # get_value(readout='caspase-3 activation', item= COc1c2ccoc2cc2oc(=O)ccc12 )
Output line: -0.404

Input line: # get_value(readout='caspase-3 activation', item= O[C@@H]([C@H](O)[C@@H](O)CBr)[C@@H](O)CBr )
Output line: 0.213

Input line: # get_value(readout='caspase-3 activation', item= O=S(=O)(O)c1ccccc1 )
Output line: 0.148

Input line: # get_value(readout='caspase-3 activation', item= O=C1CCc2ccccc2O1 )
Output line: 1.5

Input line: # get_value(readout='caspase-3 activation', item= COc1ccc2nc(N)sc2c1 )
Output line: -5.35
